Provide the reported viability, T/C of each item.
- System: 885724-159-R-J1-PDC complex spheroid viability
- protocolSummary: Anticancer human tumor 885724-159-R-J1-PDC patient-derived pancreatic adenocarcinoma cell line growth inhibition [POLQ]
- conditionDescription: second compound 0.0316 µM; first compound 1 µM; stronger effect = lower value
State just the number; it will be interpreted in %.

I have this compound here, Nc1ccn(C2OC(CO)C(O)C2(F)F)c(=O)n1 (stereo unspecified) + Nc1ccc(C#CCN(C(=O)Cc2ncc(C(F)(F)F)cc2C(F)(F)F)c2ccc(F)cc2)nn1 , and I need its recorded viability, T/C.
55.1

I have this compound here, O=c1[nH]cc(F)c(=O)[nH]1 + Cc1cccc(N(C)C(=O)C2C(O)CCN2c2nc(C)cc(C(F)(F)F)c2C#N)c1 , and I need its recorded viability, T/C.
100

I have this compound here, COc1cccc2c1C(=O)c1c(O)c3c(c(O)c1C2=O)CC(O)(C(=O)CO)CC3OC1CC(N)C(O)C(C)O1 (stereo unspecified) + Cc1cccc(N(C)C(=O)C2C(O)CCN2c2nc(C)cc(C(F)(F)F)c2C#N)c1 , and I need its recorded viability, T/C.
11.3

I have this compound here, CNCc1ccc(-c2[nH]c3cc(F)cc4c3c2CCNC4=O)cc1 + Nc1ccc(C#CCN(C(=O)Cc2ncc(C(F)(F)F)cc2C(F)(F)F)c2ccc(F)cc2)nn1 , and I need its recorded viability, T/C.
91

I have this compound here, COc1ccc([C@@H](O)c2cc(-c3ncnc4cc(N5CCOCC5)ccc34)c(F)cc2Cl)nn1 + COC1C(OC(N)=O)C(O)C(Oc2ccc3c(O)c(NC(=O)c4ccc(O)c(CC=C(C)C)c4)c(=O)oc3c2C)OC1(C)C , and I need its recorded viability, T/C.
65.5

I have this compound here, COc1cc(C2c3cc4c(cc3C(OC3OC5COC(C)OC5C(O)C3O)C3COC(=O)C23)OCO4)cc(OC)c1O (stereo unspecified) + COC1C(OC(N)=O)C(O)C(Oc2ccc3c(O)c(NC(=O)c4ccc(O)c(CC=C(C)C)c4)c(=O)oc3c2C)OC1(C)C , and I need its recorded viability, T/C.
61.6

----------
- Tested on: 885724-159-R-J1-PDC complex spheroid viability
- protocolSummary: Anticancer human tumor 885724-159-R-J1-PDC cell line growth inhibition [POLQ];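 note: spheroids exposed to compounds for 7 days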
- conditionDescription: second compound 0.316 µM; first compound 0.0316 µM; stronger effect = lower value
- Description: Multicellular complex tumor spheroid response to Polymerase (POL) inhibitors (novobiocin, ART-558, RP6685) in combination with a variety of drugs and investigational agents in selected tumor cell lines The POL inhibitors (novobiocin, ART-558, and RP6685) were evaluated both individually and in combination with standard of care and investigational anticancer small molecules within a complex spheroid model of solid tumors. . […]
Provide the reported viability, T/C of each item.
State just the number; it will be interpreted in %.

I have this compound here, Cn1ncnc1[C@H]1c2n[nH]c(=O)c3cc(F)cc(c23)N[C@@H]1c1ccc(F)cc1 + Nc1ccc(C#CCN(C(=O)Cc2ncc(C(F)(F)F)cc2C(F)(F)F)c2ccc(F)cc2)nn1 , and I need its recorded viability, T/C.
87.4

I have this compound here, CNCc1ccc(-c2[nH]c3cc(F)cc4c3c2CCNC4=O)cc1 + Nc1ccc(C#CCN(C(=O)Cc2ncc(C(F)(F)F)cc2C(F)(F)F)c2ccc(F)cc2)nn1 , and I need its recorded viability, T/C.
95.5

I have this compound here, CC1COCCN1c1cc(-c2ccnn2C)c2ccnc(-c3ccn[nH]3)c2n1 (stereo not given) + Nc1ccc(C#CCN(C(=O)Cc2ncc(C(F)(F)F)cc2C(F)(F)F)c2ccc(F)cc2)nn1 , and I need its recorded viability, T/C.
96.1

I have this compound here, CC1COCCN1c1cc(C2(S(C)(=N)=O)CC2)nc(-c2ccnc3[nH]ccc23)n1 (stereo not given) + Cc1cccc(N(C)C(=O)C2C(O)CCN2c2nc(C)cc(C(F)(F)F)c2C#N)c1 , and I need its recorded viability, T/C.
108

I have this compound here, COc1ccc([C@@H](O)c2cc(-c3ncnc4cc(N5CCOCC5)ccc34)c(F)cc2Cl)nn1 + COC1C(OC(N)=O)C(O)C(Oc2ccc3c(O)c(NC(=O)c4ccc(O)c(CC=C(C)C)c4)c(=O)oc3c2C)OC1(C)C , and I need its recorded viability, T/C.
100

I have this compound here, COc1cc2cc(C(=O)CCC(=O)O)sc2cc1OC + COC1C(OC(N)=O)C(O)C(Oc2ccc3c(O)c(NC(=O)c4ccc(O)c(CC=C(C)C)c4)c(=O)oc3c2C)OC1(C)C , and I need its recorded viability, T/C.
101

I have this compound here, CC1COCCN1c1cc(C2(O)CC3CCC(C2)O3)c2cnn(-c3ccn[nH]3)c2n1 (stereo not given) + COC1C(OC(N)=O)C(O)C(Oc2ccc3c(O)c(NC(=O)c4ccc(O)c(CC=C(C)C)c4)c(=O)oc3c2C)OC1(C)C , and I need its recorded viability, T/C.
63.1

I have this compound here, C#Cc1c(F)ccc2cc(O)cc(-c3ncc4c(N5CC6CCC(C5)N6)nc(OCC56CCCN5CC(F)C6)nc4c3F)c12 (stereo not given) + Cc1cccc(N(C)C(=O)C2C(O)CCN2c2nc(C)cc(C(F)(F)F)c2C#N)c1 , and I need its recorded viability, T/C.
95.5

I have this compound here, C#Cc1c(F)ccc2cc(O)cc(-c3ncc4c(N5CC6CCC(C5)N6)nc(OCC56CCCN5CC(F)C6)nc4c3F)c12 (stereo not given) + COC1C(OC(N)=O)C(O)C(Oc2ccc3c(O)c(NC(=O)c4ccc(O)c(CC=C(C)C)c4)c(=O)oc3c2C)OC1(C)C , and I need its recorded viability, T/C.
95.7

I have this compound here, CCc1cc2c(N3CCc4c(cc(Cn5ccnc5)cc4-c4cn(C)nc4C(F)(F)F)C3=O)cc(C)nc2c(OC)n1 + Cc1cccc(N(C)C(=O)C2C(O)CCN2c2nc(C)cc(C(F)(F)F)c2C#N)c1 , and I need its recorded viability, T/C.
89.1
